Where do the numbers come from? From patent US20240082222A1.

experiment: Pharmacokinetic study in humans, sodium salt in enteric capsules, single and multiple dose (Example 2); format: in vivo, human; details: human, plasma, oral, 400 mg, 400 mg Dose Group, capsules once daily, Day 18, individual subjects
MEASUREMENT NAME: AUC(0-t) (µg·h/mL)
Answer in µg·h/mL, number only, no unit symbol.

What value of measured AUC(0-t) is listed for O=C(Nc1nc(=O)n(Cc2ccc(Cl)cc2)s1)c1ccc(Cl)cc1 [Compound of formula II] ?
1210

---

assay: Pharmacokinetic study in humans, sodium salt in enteric capsules, single and multiple dose (Example 2); format: in vivo, human; details: human, plasma, oral, 800 mg, mean, dose group 800, capsule, Day 18
MEASUREMENT NAME: AUC(0-t) (µg·h/mL)
Answer in µg·h/mL, number only, no unit symbol.

What value of measured AUC(0-t) is listed for "O=C(Nc1nc(=O)n(Cc2ccc(Cl)cc2)s1)c1ccc(Cl)cc1" ?
2620
